System: painful syndrome provoked in mice by phenylbenzoquinone
Assay: animal or person
Assay type: in vivo
Conditions: mice; LD 50 (oral)/ED 50 (phenylbenzoquinone test)
// reported Therapeutic Index LD 50/ED 50 per item
Returns: the value as a bare number; no unit string appended.

Please look up its Therapeutic Index LD 50/ED 50: CC(Nc1ccccc1C(=O)c1ccccc1)C(=O)O (centres unmarked)
62

Would you mind telling me what Therapeutic Index LD 50/ED 50 value was observed for CC(=O)Oc1ccccc1C(=O)O [Aspirin, reference compound] ?
25

Looking for the measured Therapeutic Index LD 50/ED 50 of Cc1ccc(C(=O)c2ccccc2)cc1NC(C)C(=O)O (centres unmarked) , can you help?
46

---
Fill in the blank: the reported Therapeutic Index LD 50/ED 50 of `C[C@H](Nc1cccc(C(=O)c2ccccc2)c1)C(=O)O` is ____.
71

* * *

Test system: painful syndrome provoked in mice by phenylbenzoquinone
Test: animal or person
Type: in vivo
Conditions: mice; LD 50 (oral)/ED 50 (phenylbenzoquinone test)
property: Therapeutic Index LD 50/ED 50
Write no unit; give the number alone.

Please review the following examples before continuing.
Look at this compound and give its reported Therapeutic Index LD 50/ED 50. `Cc1c(NCC(=O)O)cccc1C(=O)c1ccccc1`
20

May I ask what Therapeutic Index LD 50/ED 50 has been recorded for `Cc1c(NCC(=O)O)cccc1C(=O)c1ccc(Cl)cc1` ?
89

What measured Therapeutic Index LD 50/ED 50 goes with Cc1ccc(C(=O)c2cccc(NC(C)C(=O)O)c2)cc1 (centres unmarked) ?
82

Recorded Therapeutic Index LD 50/ED 50 of CC(Nc1ccc(C(=O)c2ccccc2)cc1)C(=O)O (centres unmarked) , please.
58

# ---- query compound ----
Recorded Therapeutic Index LD 50/ED 50 for CC(Nc1cccc(C(=O)c2ccccc2)c1)C(=O)O (centres unmarked) [LJ 843, monohydrate] , please?
150

* * *

Tested on: painful syndrome provoked in mice by phenylbenzoquinone
Experiment: animal or person
Format: in vivo
Settings: Mus musculus
Readings of ED50 for the listed compounds
Lab book: enter the figure in mg/kg, no units written.

API: value(readout= ED50, system= painful syndrome provoked in mice by phenylbenzoquinone, query= Cc1ccc(C(=O)c2cccc(NC(C)C(=O)O)c2)cc1 (stereo not drawn) [LJ 867] )
32

Entry CC(Nc1ccccc1C(=O)c1ccccc1)C(=O)O (stereo not drawn) [LJ 855] , system painful syndrome provoked in mice by phenylbenzoquinone: what ED50 was measured?
16

Tell me reported ED50 for Cc1ccc(C(=O)c2ccccc2)cc1NC(C)C(=O)O (stereo not drawn) [LJ 869] , tested with painful syndrome provoked in mice by phenylbenzoquinone.
28

Can you look up ED50 on painful syndrome provoked in mice by phenylbenzoquinone for Cc1ccc(C(=O)c2ccccc2)cc1NCC(=O)O [LJ 871] ?
120

Quick check: ED50 on painful syndrome provoked in mice by phenylbenzoquinone, item CN(CC(=O)O)c1cccc(C(=O)c2ccccc2)c1 [LJ 862, N-(3-Benzoylphenyl)-N-methyl-glycine] ?
85

---
// fetch painful syndrome provoked in mice by phenylbenzoquinone ED50 for CC(Nc1cccc(C(=O)c2ccccc2)c1)C(=O)O (stereo not drawn) [LJ 843, monohydrate]
25

Item: CC(Nc1ccc(C(=O)c2ccccc2)cc1)C(=O)O (stereo not drawn) [LJ 854] Test system: painful syndrome provoked in mice by phenylbenzoquinone Read-out: ED50 Value: ?
32

Give recorded ED50 with painful syndrome provoked in mice by phenylbenzoquinone for the following compound: CC(=O)Oc1ccccc1C(=O)O [Aspirin, reference compound]
60

Entry Cc1c(NCC(=O)O)cccc1C(=O)c1ccc(Cl)cc1 [LJ 846] , system painful syndrome provoked in mice by phenylbenzoquinone: what ED50 was measured?
18

What reported ED50 corresponds to Cc1c(NCC(=O)O)cccc1C(=O)c1ccccc1 [LJ 861] on painful syndrome provoked in mice by phenylbenzoquinone?
65

Item C[C@H](Nc1cccc(C(=O)c2ccccc2)c1)C(=O)O [LJ 874, N-(3-Benzoylphenyl)-alanine] with painful syndrome provoked in mice by phenylbenzoquinone - ED50?
35
